meta.source: paper PMC10044120

test system: Caco-2 cells; settings: Caco-2, USA-WA1/2020 rows
measurement.type: CC50 (µM)
Give a bare numeral; the unit µM is implied.

In: Provide only the value of recorded CC50 for O=c1nc(NO)ccn1[C@@H]1O[C@H](CO)[C@@H](O)[C@H]1O
Out: 94

###

assay: in vitro; conditions: African green monkey, Percent Cytotoxicity (Neutral Red), Vero E6; SARS2-733 (Delta set); 0.1 µM
measurement.type: cytotoxicity at 0.1 µM
Note: a bare number is incomplete; add the unit.

In: Provide only the value of recorded cytotoxicity at 0.1 µM for COC(=O)/C=C/C(=O)NNC(=O)CCc1ccccc1C(=O)N[C@H](C)c1cccc2ccccc12
Out: 7.1%

###

Reported remaining activity at 6.34 µM values for a set of compounds
target: PLpro from SARS-CoV-2 (Severe acute respiratory syndrome coronavirus 2, UniProt P0DTD1); test: biochemical; type: biochemical; settings: 0.5 h, inhibitor 6.34 uM
Give a bare numeral; the unit % is implied.

Sample records with remaining activity at 6.34 µM:
C[C@@H](NC(=O)c1ccccc1CCC(=O)NNC(=O)C(C#N)=CC1CC1)c1cccc2ccccc12 [Compound 13]    109
C[C@@H](NC(=O)c1ccccc1CCC(=O)NNC(=O)CC#N)c1cccc2ccccc12 [Compound 11]    46.4
CC(=O)Nc1ccc(C)c(C(=O)N[C@H](C)c2cccc3ccccc23)c1 [Compound 15]    56.9
Cc1ccccc1C(=O)N[C@H](C)c1cccc2ccccc12 [Compound 14]    77.4
C[C@@H](NC(=O)c1ccccc1CCC(=O)NNC(=O)CCl)c1cccc2ccccc12 [Compound 9]    38.1

Okay, now this compound:
In: Provide only the value of recorded remaining activity at 6.34 µM for CC(=O)Nc1ccc(CCC(=O)NNC(=O)CCl)c(C(=O)N[C@H](C)c2cccc3ccccc23)c1 [Compound 10]
Out: 37.2

###

Reported inhibition values for a set of compounds
system: SARS-CoV-2 isolate USA-WA1/2020; details: read-out: cytopathic effect, % cell viability; [inhibitor] 16.65 uM; duplicate wells; 16.65 µM
Give a bare numeral; the unit % is implied.

Sample records with inhibition:
C[C@@H](NC(=O)c1ccccc1CCC(=O)NNC(=O)CCl)c1cccc2ccccc12 [Compound 9]    21
C[C@@H](NC(=O)c1ccccc1CCC(=O)NN)c1cccc2ccccc12 [Compound 5]    2.6

In: Provide only the value of recorded inhibition for Cc1ccccc1C(=O)N[C@H](C)c1cccc2ccccc12 [Compound 14]
Out: 5.25

In: Provide only the value of recorded inhibition for COC(=O)/C=C/C(=O)NNC(=O)CCc1ccccc1C(=O)N[C@H](C)c1cccc2ccccc12 [Compound 7]
Out: 97

###

molecular target: PLpro (Severe acute respiratory syndrome coronavirus 2); assay: Intact protein ESI-MS to assess covalent adduct formation; format: binding, SARS-CoV-2; design: unit not given here
measurement.type: Measured adduct mass
The reply should be a number, written without any unit.

COC(=O)/C=C/C(=O)NNC(=O)CCc1ccccc1C(=O)N[C@H](C)c1cccc2ccccc12    474
CC(=O)Nc1ccc(CCC(=O)NNC(=O)CCl)c(C(=O)N[C@H](C)c2cccc3ccccc23)c1    460
C[C@@H](NC(=O)c1ccccc1CCC(=O)NNC(=O)CCl)c1cccc2ccccc12    401

In: Provide only the value of recorded Measured adduct mass for COC(=O)/C=C/C(=O)NNC(=O)CCc1ccc(NC(C)=O)cc1C(=O)N[C@H](C)c1cccc2ccccc12
Out: 531
